Tested on: green peach aphid (Myzus persicae)
Experiment: Myzus persicae test (MYZUPE), ammonium salts in combination with penetration enhancers (Example C)
Assay type: in vivo
Conditions: Table C1; active substance 20 ppm, no additive
measured attribute: Kill rate/% after 6 days, a.i. (%)
Write the value in % as a bare number.

Data request: Endpoint output: Kill rate/% after 6 days, a.i. of C=CCNS(=O)(=O)c1cccc(OC)c1C#N [Example 44] . Value?
Data returned: 85

Data request: Endpoint output: Kill rate/% after 6 days, a.i. of N#Cc1ccccc1S(N)(=O)=O [Example 226] . Value?
Data returned: 10

Data request: Endpoint output: Kill rate/% after 6 days, a.i. of C#CCN1C(=N)c2c(OC)cccc2S1(=O)=O [Example 42-A] . Value?
Data returned: 0

Data request: Endpoint output: Kill rate/% after 6 days, a.i. of C#CCNS(=O)(=O)c1cccc(OC)c1C#N [Example 42] . Value?
Data returned: 5
